Target protein (sequence): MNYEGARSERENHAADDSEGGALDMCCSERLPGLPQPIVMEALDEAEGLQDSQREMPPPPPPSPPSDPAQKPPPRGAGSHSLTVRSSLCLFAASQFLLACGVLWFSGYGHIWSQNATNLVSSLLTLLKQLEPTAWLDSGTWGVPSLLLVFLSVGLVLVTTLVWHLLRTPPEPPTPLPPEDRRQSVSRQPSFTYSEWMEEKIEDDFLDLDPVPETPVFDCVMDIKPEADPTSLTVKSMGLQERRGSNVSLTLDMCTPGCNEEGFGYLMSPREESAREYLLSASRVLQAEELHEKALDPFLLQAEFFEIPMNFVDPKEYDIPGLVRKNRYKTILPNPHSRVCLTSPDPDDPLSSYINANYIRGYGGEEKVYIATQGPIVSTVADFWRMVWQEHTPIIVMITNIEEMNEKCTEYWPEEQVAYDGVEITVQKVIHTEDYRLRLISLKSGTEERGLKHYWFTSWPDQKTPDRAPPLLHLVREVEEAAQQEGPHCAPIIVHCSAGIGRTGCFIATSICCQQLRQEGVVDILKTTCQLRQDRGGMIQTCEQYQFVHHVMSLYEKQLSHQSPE
reported_property: IC50

Worked set:
{"molecule": "CCOc1ccc(-c2ccc3nc(-c4cccnc4)nc(Nc4ccc(F)c(Cl)c4)c3c2)cn1", "IC50": "< 1000 nM"}
{"molecule": "COc1cccc(-c2csc(Nc3nc(-c4cccnc4)nc4ccc(OC)cc34)n2)c1", "IC50": "1000 to 10000 nM"}
{"molecule": "COc1ccc2nc(-c3cccnc3)nc(Nc3nc(-c4ccc(Cl)cc4)cs3)c2c1 [Compound 399]", "IC50": "< 1000 nM"}

We now examine a further molecule.
[ask] Please supply the value of reported IC50 for the item "Fc1ccc(-c2ccc3c(Nc4ccc(F)c(Cl)c4)nc(-c4cccnc4)nc3c2)cc1F"
[reply] 1000 to 10000 nM

---

Molecular target: purified STEP46 enzyme (Homo sapiens)
Sequence (P54829 1-565): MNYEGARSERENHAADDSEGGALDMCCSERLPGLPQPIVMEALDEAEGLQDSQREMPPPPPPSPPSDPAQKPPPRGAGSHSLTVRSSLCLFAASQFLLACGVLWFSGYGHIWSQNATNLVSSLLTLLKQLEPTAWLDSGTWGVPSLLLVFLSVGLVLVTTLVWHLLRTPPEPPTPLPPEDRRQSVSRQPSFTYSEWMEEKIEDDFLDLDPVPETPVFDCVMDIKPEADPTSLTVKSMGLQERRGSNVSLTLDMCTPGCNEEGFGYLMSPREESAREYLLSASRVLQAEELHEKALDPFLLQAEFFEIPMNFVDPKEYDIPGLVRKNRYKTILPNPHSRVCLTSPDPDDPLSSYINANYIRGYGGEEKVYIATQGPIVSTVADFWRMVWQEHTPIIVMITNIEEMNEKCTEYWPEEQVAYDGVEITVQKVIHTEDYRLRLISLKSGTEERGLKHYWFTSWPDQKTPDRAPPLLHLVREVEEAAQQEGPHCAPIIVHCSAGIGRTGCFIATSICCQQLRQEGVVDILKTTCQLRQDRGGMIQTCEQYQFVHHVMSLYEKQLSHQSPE
reported_property: IC50

Worked set:
{"structure_as_smiles": "CNc1nc(-c2cccnc2)nc2cc(-c3ccc(C#N)cc3)ccc12", "system": "purified STEP46 enzyme (Homo sapiens)", "IC50": "1000 to 10000 nM"}
{"structure_as_smiles": "CCNC(=O)c1sc(Nc2nc(-c3cccnc3)nc3ccc(OC)cc23)nc1-c1ccccc1", "system": "purified STEP46 enzyme (Homo sapiens)", "IC50": "1000 to 10000 nM"}
{"structure_as_smiles": "NC(=O)c1ccccc1Nc1nc(-c2cnccn2)nc2ccc(Cl)cc12", "system": "purified STEP46 enzyme (Homo sapiens)", "IC50": "1000 to 10000 nM"}
{"structure_as_smiles": "COc1ccc2c(Nc3ccc(F)c(Cl)c3)nc(-c3cnccn3)nc2c1", "system": "purified STEP46 enzyme (Homo sapiens)", "IC50": "1000 to 10000 nM"}

[ask] Please supply the value of reported IC50 for the item "COc1ccc2nc(-c3cccnc3)nc(Nc3cc(-c4ccc(Cl)cc4)nn3C)c2c1"
[reply] 1000 to 10000 nM

[ask] Please supply the value of reported IC50 for the item "Clc1cc(Cl)cc(Nc2nc(-c3cnccn3)nc3ccccc23)c1"
[reply] 1000 to 10000 nM

[ask] Please supply the value of reported IC50 for the item "COc1ncc(-c2ccc3nc(-c4cccnc4)nc(Nc4ccc(F)c(Cl)c4)c3c2)cn1"
[reply] < 1000 nM

[ask] Please supply the value of reported IC50 for the item "COc1ccc2nc(-c3cnccn3)nc(Nc3cc(Cl)cc(Cl)c3)c2c1"
[reply] < 1000 nM

[ask] Please supply the value of reported IC50 for the item "COc1ccc2nc(-c3cccnc3)nc(Nc3nc(-c4ccccc4)c(C)s3)c2c1"
[reply] < 1000 nM

[ask] Please supply the value of reported IC50 for the item "CN(C)c1nc(-c2cccnc2)nc2ccc(-c3cccc(F)c3)cc12"
[reply] 1000 to 10000 nM

[ask] Please supply the value of reported IC50 for the item "COc1ccc2nc(-c3cccnc3)nc(Nc3ccccc3C(=O)NCc3ccc4c(c3)CCC4)c2c1"
[reply] 1000 to 10000 nM

[ask] Please supply the value of reported IC50 for the item "CNc1nc(-c2cccnc2)nc2cc(-c3ccc(Cl)cc3)ccc12"
[reply] 1000 to 10000 nM

[ask] Please supply the value of reported IC50 for the item "COc1ccc2nc(-c3cccnc3)nc(Nc3nc(-c4ccc(F)cc4F)cs3)c2c1"
[reply] 1000 to 10000 nM

[ask] Please supply the value of reported IC50 for the item "COc1ccc2nc(-c3ccnnc3)nc(Nc3ccc(Cl)c(Cl)c3)c2c1"
[reply] 1000 to 10000 nM

[ask] Please supply the value of reported IC50 for the item "Cc1cc(Cl)cc2c(Nc3ccccc3C(N)=O)nc(-c3cnccn3)nc12"
[reply] 1000 to 10000 nM

[ask] Please supply the value of reported IC50 for the item "CNc1nc(-c2cccnc2)nc2ccc(-c3ccc(C(C)=O)cc3OC)cc12"
[reply] < 1000 nM

[ask] Please supply the value of reported IC50 for the item "CNc1nc(-c2cccnc2)nc2cc(-c3cc(F)ccc3F)c(C)cc12"
[reply] 1000 to 10000 nM
